Assay: folding stability dG unfold (combined trypsin and chymotrypsin); higher = more stable
Provide the recorded folding stability dG unfold for the entries that follow.
One number for each entry, in kcal/mol.

// below: answered sequences
[[record]]
residue_codes = "SAGGSAGGSKKWIPIDSPSEIEDLLEKAPPGGKLKIYNNNGQTEKVPPNEIERTPNHWWIEVDSAGGSAGGS [r12_907_TrROS]"
reported = -0.463

[[record]]
residue_codes = "SAGWYYIIIIKHDNKPIVFVIPPEGMPPEGIRDQISEMLGMPPDNVEIDDIVPFDDNQDAEEAVKEALDSAG [r5_900_TrROS]"
reported = 2.09

[[record]]
residue_codes = "SAGGSAGGSAGMRPVTSVYYDPNTGRLYARFPDGVVANYELTPDGSVRLVSVAPAHPDLDSAGGSAGGSAGG [r17_61_TrMRF]"
reported = 1.42

[[record]]
residue_codes = "EKYIVKIKITVRRKVETETLPDGSKKTRYETKTLEIEIEVSLEELKKLLEELNLPEDEITSVEIEVYPEEES [r1_351_TrROS_Hall]"
reported = 4.31

[[record]]
residue_codes = "SMSVSTSTEKLPTDLYITEKEIKIEPVDPTKNVYRVTVKTTIVDKNGNVVKEEEKEEIIPLSELEKRIKSSA [r9_234_JUSTAS]"
reported = 1.54


Switching to the query record.
Problem: Given SAGGSAGGSAGTMTAEEIAKALGAKVVEVYPDKVVIEIEVDGKKYRITINEDGEVTVEEVSAGGSAGGSAGG [r17_252_TrROS_Hall] , state its recorded folding stability dG unfold.
Solution: 4.02

Hello, the source for this data is the supplement of paper PMC12764529, in case you need it.
